Recorded pIC50 for the following compounds
- system: ALK2/ACVR1 (Homo sapiens)
- Sequence (Q04771 21-509): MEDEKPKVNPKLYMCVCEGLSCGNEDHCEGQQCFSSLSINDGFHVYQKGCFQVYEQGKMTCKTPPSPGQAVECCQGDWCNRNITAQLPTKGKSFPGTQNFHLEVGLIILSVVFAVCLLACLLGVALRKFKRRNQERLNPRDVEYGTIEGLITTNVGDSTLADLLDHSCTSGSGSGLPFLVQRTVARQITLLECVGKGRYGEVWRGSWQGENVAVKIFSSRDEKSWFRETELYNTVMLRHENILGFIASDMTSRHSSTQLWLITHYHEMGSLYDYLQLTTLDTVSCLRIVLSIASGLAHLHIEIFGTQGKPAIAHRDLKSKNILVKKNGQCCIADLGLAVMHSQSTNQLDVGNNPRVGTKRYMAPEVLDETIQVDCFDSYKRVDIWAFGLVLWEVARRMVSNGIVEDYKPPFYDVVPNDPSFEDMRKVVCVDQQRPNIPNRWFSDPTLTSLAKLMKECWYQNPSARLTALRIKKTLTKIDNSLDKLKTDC
- measurement_description: Kinase assay (33P-ATP filter-binding), ALK2
- Type: biochemical
- test_context: 20 mM; read-out: Kinase Selectivity ALK2/ACVR1 (20 mM)
By convention, pIC50 is the negative base-10 log of a molar concentration.

compound | pIC50
c1ncc2scc(-c3cnc4cc(-c5ccc(C6CNCCN6)cc5)ccn34)c2n1 (stereo not shown) [Compound 35] | 6.80

Switching to the query record.
Specify measured pIC50 for c1cnc2scc(-c3cnc4cc(-c5ccc(C6CNCCN6)cc5)ccn34)c2c1 (stereo not shown) [Compound 31] .
7.70
